All figures here come from patent US20140066365A1.

# MIC listing for each entry below
- assay.summary: MIC of the compounds used alone, microdilution in a liquid medium (CLSI)
- Assay type: cell-based, Staphylococcus aureus
- details: Staphylococcus aureus, MRSA; antibiotic alone (second value of cell); SaR4; read-out: MIC
- Description: The MICs of the antibiotics were previously defined for each strain, by the method of microdilution in a liquid medium (CLSI (Clinical and Laboratory Standards Institute), 2003).
// note: answer is a bare numeric in µg/mL

Return reported MIC; argument: CC(=O)NC[C@H]1CN(c2ccc(N3CCOCC3)c(F)c2)C(=O)O1 [Linezolid] 2

Next item in the queue.
Return reported MIC; argument: C[C@@H]1O[C@@H]1P(=O)(O)O [Fosfomycin] 128
